B1: TNXB (parent)
chain: FSEIRETSAKVNWMPPPSRADSFK

Variants of: B1
Assay: protein stability index of a GFP-peptide fusion (GPS, HEK-293T) (PSI 1-6); higher = more stable;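 note: lentivirally expressed fusions sorted by FACS into six bins by GFP to DsRed ratio, PSI derived from sequencing read proportions per bin multiplied by bin number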
Settings: c terminus: a fixed tail appended
MEASURED PARAMETER: protein stability index
Give bare numbers.

Give protein stability index for each of the items listed below.
1. R19K
2. M14L
3. F23L
4. N12M

1. 3.6
2. 3.31
3. 3.91
4. 2.04

Reference source: the supplement of paper PMC10567573
